Below, each of the molecules is paired with its reported Avg % Edit value.
test system: TTR; assay: TTR editing in primary human hepatocytes transfected with Spy Cas9 mRNA and sgRNAs (Table 13); format: cell-based; conditions: primary human hepatocytes co-transfected with Spy Cas9 mRNA (SEQ ID NO:2) and sgRNAs, 12.5 nM
Strand notation (5' to 3'): a small letter for the sugar, then the base; units joined by * are phosphorothioate-linked, units joined directly phosphodiester-linked; [ ] holds rarer units or linkages, { } end groups; capitals alone tell only the bases. m = 2'-O-methyl; r = 2'-OH (RNA)
API: value field is a number in %; no unit string.

Query: Consider the molecule shown here: G000484: TTR sgRNA modified sequence, Human, SEQ ID No. 91; guide sequence of CR003367 (nucleic acid) guide: mA*mG*mA*rCrArCrCrArArArUrCrUrUrArCrUrGrGrArGrUrUrUrUrArGrAmGmCmUmAmGmAmAmAmUmAmGmCrArArGrUrUrArArArArUrArArGrGrCrUrArGrUrCrCrGrUrUrArUrCrAmAmCmUmUmGmAmAmAmAmAmGmUmGmGmCmAmCmCmGmAmGmUmCmGmGmUmGmCmU*mU*mU*mU What is its recorded Avg % Edit?
Result: 43.37

Next:
Query: Recorded Avg % Edit of G000499: TTR sgRNA modified sequence, Human, SEQ ID No. 106; guide sequence of CR005303 (nucleic acid) guide: mU*mG*mA*rArUrCrCrArArGrUrGrUrCrCrUrCrUrGrArGrUrUrUrUrArGrAmGmCmUmAmGmAmAmAmUmAmGmCrArArGrUrUrArArArArUrArArGrGrCrUrArGrUrCrCrGrUrUrArUrCrAmAmCmUmUmGmAmAmAmAmAmGmUmGmGmCmAmCmCmGmAmGmUmCmGmGmUmGmCmU*mU*mU*mU , please.
Result: 39.30
